Each record here notes measured melting point.
quantity kind: melting point

[[record]]
molecule = "CC(=O)NCC1CC1c1ccc(Cl)c2nn(C)cc12 (centres undefined)"
quantity_kind = "melting point"
result = "153 to 155 °C"

[[record]]
molecule = "O=C(NNc1ccc(Cl)cc1Cl)C(F)(F)F"
quantity_kind = "melting point"
result = "127 to 128 °C"

[[record]]
molecule = "CC(C)C1c2ccc(F)cc2CCC1(O)CC(=O)O (centres undefined)"
quantity_kind = "melting point"
result = "102 to 104 °C"

[[record]]
molecule = "CC1(C)Oc2ccc(Cl)cc2C12NC(=O)NC2=O (centres undefined)"
quantity_kind = "melting point"
result = "228 to 229 °C"

[[record]]
molecule = "CCC(C(=O)O)C1=NC(c2ccccc2)(c2ccccc2)CO1 (centres undefined)"
quantity_kind = "melting point"
result = "125 to 126 °C"

[[record]]
molecule = "O=C(Nc1[nH]nc(-c2c(Cl)cc(C(F)(F)F)c(F)c2Cl)c1[N+](=O)[O-])C(Cl)Cl"
quantity_kind = "melting point"
result = "115 to 117 °C"

[[record]]
molecule = "CN(Cc1ccc2nsnc2c1)C1CCN(C(=O)c2ccc(Nc3nccc(Nc4ccc(F)cc4)n3)cc2)CC1"
quantity_kind = "melting point"
result = "191 to 192 °C"

[[record]]
molecule = "COC(=O)CC(=O)c1ccc(C#N)cc1"
quantity_kind = "melting point"
result = "93 to 98 °C"

[[record]]
molecule = "CCC(O)c1cc2c(=O)n(NS(C)(=O)=O)c(=O)[nH]c2cc1C(F)(F)F (centres undefined)"
quantity_kind = "melting point"
result = "219 to 222 °C"


* * *

quantity kind: melting point

[[record]]
compound = "CCNC(=O)c1c(Cl)cccc1[Si](C)(C)CC"
quantity_kind = "melting point"
result = "94 to 95 °C"

[[record]]
compound = "C=C(C)c1ccc2occ(C#N)c(=O)c2c1"
quantity_kind = "melting point"
result = "142 to 144 °C"

[[record]]
compound = "COC(=O)CNC(=O)CC(O)CBr (stereo unspecified)"
quantity_kind = "melting point"
result = "60 to 61 °C"

[[record]]
compound = "COc1cccc(COc2ccc3oc(-c4nc(C(C)(C)C)cs4)cc3c2)c1OC(C)C(N)=O (stereo unspecified)"
quantity_kind = "melting point"
result = "155 to 156 °C"

[[record]]
compound = "COc1ccc(N2C(=O)C(N3C(=O)c4ccccc4C3=O)C2c2ccc(C(=O)O)cc2)cc1 (stereo unspecified)"
quantity_kind = "melting point"
result = "265 °C"

[[record]]
compound = "CN(C(=O)c1cccs1)c1cccc2cc(-c3nccs3)[nH]c12"
quantity_kind = "melting point"
result = "250 °C"

[[record]]
compound = "Cc1ccccc1C(=O)CCc1c(C(=O)N2CCCC2)cc2c(nc(C)n2C)c1O"
quantity_kind = "melting point"
result = "216 to 217 °C"

[[record]]
compound = "CC(C)(C)NC(=O)c1ccc(Cl)nc1"
quantity_kind = "melting point"
result = "108 to 110 °C"

[[record]]
compound = "O=S(=O)(c1c(-c2ccc(Cl)cc2)[nH]c(SC(F)(F)F)c1Br)C(F)(F)F"
quantity_kind = "melting point"
result = "122 to 125 °C"

[[record]]
compound = "Cn1cc(S(C)=O)c(=O)c2sc(-c3cccc(Cl)c3)cc21 (stereo unspecified)"
quantity_kind = "melting point"
result = "249 to 251 °C"

[[record]]
compound = "CCCCCCCCCCCCCCOc1ccc(OCc2ccccc2)c(C(=O)OC)c1"
quantity_kind = "melting point"
result = "43 to 46 °C"

[[record]]
compound = "Cn1nc(-c2ccccc2Cl)nc1-c1cccc([N+](=O)[O-])c1Cl"
quantity_kind = "melting point"
result = "124 to 125 °C"

[[record]]
compound = "O=C1NC(=O)C(Cc2ccc(C(=O)CCc3ccccc3)cc2)S1 (stereo unspecified)"
quantity_kind = "melting point"
result = "119 to 121 °C"

[[record]]
compound = "CC(=O)SCC(CC(=O)c1ccc(Br)cc1)C(=O)OCc1ccccc1 (stereo unspecified)"
quantity_kind = "melting point"
result = "79 to 80 °C"

[[record]]
compound = "COC(=O)c1ccc(C(=O)OC)c(S(N)(=O)=O)c1"
quantity_kind = "melting point"
result = "165 to 170 °C"

[[record]]
compound = "COc1cccc(Cn2c(=O)[nH]c3cc(Cl)cc(Cl)c3c2=O)c1"
quantity_kind = "melting point"
result = "216 to 220 °C"

[[record]]
compound = "C#Cc1sc(C2=NOC(c3cc(Cl)cc(Cl)c3)(C(F)(F)F)C2)cc1C (stereo unspecified)"
quantity_kind = "melting point"
result = "105 to 107 °C"

[[record]]
compound = "CC(C)(C)OC(=O)Nc1ccncc1C(=O)O"
quantity_kind = "melting point"
result = "260 °C"

[[record]]
compound = "COc1ccc(SC(=C2NCCCS2)[N+](=O)[O-])cc1"
quantity_kind = "melting point"
result = "160 to 162 °C"

[[record]]
compound = "Cc1nc(-n2cc(C(=O)c3ccccc3)nn2)sc1C(=O)NCc1ccccc1"
quantity_kind = "melting point"
result = "176 to 178 °C"

[[record]]
compound = "COc1cc(CO)ccc1OCc1csc(N2CCOCC2)n1"
quantity_kind = "melting point"
result = "94 to 95 °C"

[[record]]
compound = "Cc1c(C(=O)Nc2ccc(OCC(C)(C)C)c(C#N)c2)cnn1-c1cccc(C(F)(F)F)c1"
quantity_kind = "melting point"
result = "116 to 118 °C"

[[record]]
compound = "Cc1ccc(-c2ncc3c(n2)CCCCC3)nc1-c1ccncc1"
quantity_kind = "melting point"
result = "198 to 200 °C"

[[record]]
compound = "CCOCc1nc2c(N)nc3cc(OCc4ccc(C(F)(F)F)o4)ccc3c2n1CC(C)(C)NS(C)(=O)=O"
quantity_kind = "melting point"
result = "186 to 188 °C"

[[record]]
compound = "O=S(=O)(c1ccc(Cl)cc1)c1c(-c2ccc(Cl)cc2)[nH]c(C(F)(F)F)c1Br"
quantity_kind = "melting point"
result = "> 230 °C"

[[record]]
compound = "CCOC(=O)c1cn(-c2cccc(Oc3ccc(Cl)cc3)c2)cn1"
quantity_kind = "melting point"
result = "112 to 113 °C"


* * *

Each record here notes measured melting point.
quantity kind: melting point

[[record]]
compound = "COc1c(-c2cccs2)ccc2c(OC)c(-c3cccs3)ccc12"
result = "225 to 228 °C"

[[record]]
compound = "CC(=O)OCCSc1nc(C(C)(C)C)nn1C(=O)N(C)C"
result = "110 to 112 °C"

[[record]]
compound = "Cn1c(=O)[nH]c(=O)n(-c2cc(O)ccc2Br)c1=O"
result = "265 to 270 °C"

[[record]]
compound = "C[C@H]1CC[C@H]2C(C)(C)[C@@H](O)CC[C@]23Oc2c(c(OCc4ccccc4)cc4c2CN(C(=O)OC(C)(C)C)C4=O)C[C@]13C"
result = "138 to 140 °C"

[[record]]
compound = "CNC(=O)ON=C1Oc2ccccc2OC1(C)C"
result = "174 to 176 °C"

[[record]]
compound = "CC12CCCc3cc(C(=O)O)cc(c31)CCC2"
result = "213 to 215 °C"

[[record]]
compound = "CN1CCN(Cc2ccc(NC(=O)n3ccc4cc(Oc5cc(CC(N)=O)ncn5)ccc43)cc2C(F)(F)F)CC1"
result = "221 to 223 °C"

[[record]]
compound = "CCCN1CCC(=O)C2=C1COc1ccc(OC)cc12"
result = "97 to 100 °C"

[[record]]
compound = "CCCc1cn2ccccc2c1C(=O)c1ccc(OS(=O)(=O)c2ccc(C)cc2)cc1"
result = "95 to 97 °C"

[[record]]
compound = "CCOC(=O)c1ccc(N(CCOc2ccc(C#N)c3ccccc23)C(=O)C(F)(F)F)cc1"
result = "150 to 151 °C"

[[record]]
compound = "CCCOc1ncc(NS(=O)(=O)CC(=O)O)cc1-c1nc2c(CCC)nn(C)c2c(=O)[nH]1"
result = "267 to 270 °C"

[[record]]
compound = "C=CCc1cc(C=C2SC(=S)NC2=O)cc(CC=C)c1O"
result = "157 to 160 °C"

[[record]]
compound = "COC(=O)c1c[nH]cc1-c1cccc(Cl)c1Cl"
result = "200 to 201 °C"

[[record]]
compound = "CC(C)(C)c1cc(OCc2cccc(C(=O)O)c2)cc(C(C)(C)C)c1"
result = "167 to 169 °C"

[[record]]
compound = "CCCNC(=O)c1ccc(/C=C(\\C)c2ccc3c(c2)C(C)(C)CCO3)cc1"
result = "138 to 139 °C"

[[record]]
compound = "Clc1cc(Cl)c2ocnc2c1"
result = "98 to 99 °C"

[[record]]
compound = "Fc1ccccc1C1=CCC(=S)Nc2ccc(Cl)cc21"
result = "179 to 181 °C"

[[record]]
compound = "O=c1[nH]cnc2c1nc(CC1CCN(Cc3ccccc3)CC1)n2Cc1ccc(F)cc1"
result = "197 °C"

[[record]]
compound = "COc1ccc(F)cc1C(C)(C)CC(O)(Cn1ccc(=N)c2ccccc21)C(F)(F)F (stereo unspecified)"
result = "137 to 140 °C"

[[record]]
compound = "CCCCOC(=O)[C@H]1CN(c2ccc3c(c2)oc(=O)n3C)C(=O)O1"
result = "182 to 184 °C"

[[record]]
compound = "Clc1ccc2c(c1)CN1C(=Nc3cccnc3)SC[C@@H]1C2"
result = "125 °C"

[[record]]
compound = "CS(=O)(=O)c1ccc(Oc2ccc([N+](=O)[O-])c(NCCC(N)=O)c2)c(Cl)c1"
result = "135 °C"

[[record]]
compound = "COc1ccc2[nH]c(S(=O)Cc3nccc(N4CCOCC4)c3F)nc2c1 (stereo unspecified)"
result = "142 to 146 °C"

[[record]]
compound = "COC(=O)c1ccccc1-c1ccc(CNc2nc(Cl)nc3ccccc23)cc1"
result = "75 to 90 °C"

[[record]]
compound = "O=C(Nc1ccc[nH]c1=O)c1ccccc1F"
result = "223 °C"

[[record]]
compound = "Clc1ccc(-c2nc3ccccc3n2-c2ccccc2)cc1"
result = "139 to 141 °C"


Entry source: a melting point compilation (Tetko et al.; mined from patent text by program, amines drawn as free bases though some values may be those of a salt)
